- METHOD_SUMMARY: Absorbance and fluorescence spectra of FM fluorophores in solvents
- Format: physicochemical
- CONDITION_CONTEXT: emission maximum in PBS
MEASUREMENT_LABEL: Em nm (PBS) (nm)

# query: Em nm (PBS) of entry CCN(CC)c1ccc(C=CC=CC=Cc2cc[n+](CCC[N+](C)(C)C)cc2)cc1.[Br-].[Br-]
809

# query: Em nm (PBS) of entry CCCCN(CCCC)c1ccc(/C=C/C=C/C=C/c2cc[n+](CCC[N+](CC)(CC)CC)cc2)cc1.[Br-].[Br-]
808

# query: Em nm (PBS) of entry CCCCN(CCCC)c1ccc(/C=C/c2cc[n+](CCC[N+](CC)(CC)CC)cc2)cc1.[Br-].[Br-]
631

# query: Em nm (PBS) of entry CCN(CC)c1ccc(/C=C/c2cc[n+](CCC[N+](CC)(CC)CC)cc2)cc1.[Br-].[Br-]
628

# query: Em nm (PBS) of entry CCN(CC)c1ccc(/C=C/C=C/C=C/c2cc[n+](CCC[N+](CC)(CC)CC)cc2)cc1.[Br-].[Br-]
808

# query: Em nm (PBS) of entry CCCCN(CCCC)c1ccc(/C=C/c2cc[n+](CCC[N+](C)(C)C)cc2)cc1.[Br-].[Br-]
628

----------
- METHOD_SUMMARY: Absorbance and fluorescence spectra of FM fluorophores in solvents
- Assay type: physicochemical
- CONDITION_CONTEXT: excitation maximum in MeOH
- Protocol: Absorbance and fluorescence spectra of the FM fluorophores were measured in PBS and absolute methanol (MeOH) using fiber-optic HR2000 (200-1100 nm) and USB2000FL (350-1000 nm) spectrometers (Ocean Optics, Dunedin, Fla.), respectively. Fluorescence excitation was provided by a 2 mW, 532 nm laser diode. The fluorescence and absorbance spectra of FORMULA II and FORMULA IA were collected in dimethyl sulfoxide (DMSO) and fetal bovine serum (FBS), as well as MeOH and PBS. […]
MEASUREMENT_LABEL: Ex nm (MeOH) (nm)

# query: Ex nm (MeOH) of entry CCCCN(CCCC)c1ccc(/C=C/c2cc[n+](CCC[N+](C)(C)C)cc2)cc1.[Br-].[Br-] [Formula IA]
510

# query: Ex nm (MeOH) of entry CCN(CC)c1ccc(/C=C/c2cc[n+](CCC[N+](CC)(CC)CC)cc2)cc1.[Br-].[Br-] [FM 2-10]
507

# query: Ex nm (MeOH) of entry CCN(CC)c1ccc(/C=C/C=C/C=C/c2cc[n+](CCC[N+](CC)(CC)CC)cc2)cc1.[Br-].[Br-] [FM 4-64]
546

# query: Ex nm (MeOH) of entry CCCCN(CCCC)c1ccc(/C=C/c2cc[n+](CCC[N+](CC)(CC)CC)cc2)cc1.[Br-].[Br-] [FM 1-43]
509

# query: Ex nm (MeOH) of entry CCN(CC)c1ccc(C=CC=CC=Cc2cc[n+](CCC[N+](C)(C)C)cc2)cc1.[Br-].[Br-] [FM 5-95]
542

# query: Ex nm (MeOH) of entry CCCCN(CCCC)c1ccc(/C=C/C=C/C=C/c2cc[n+](CCC[N+](CC)(CC)CC)cc2)cc1.[Br-].[Br-] [Formula II]
549

----------
- METHOD_SUMMARY: Absorbance and fluorescence spectra of FM fluorophores in solvents
- Type: physicochemical
- CONDITION_CONTEXT: emission maximum in MeOH
MEASUREMENT_LABEL: Em nm (MeOH) (nm)

# query: Em nm (MeOH) of entry CCCCN(CCCC)c1ccc(/C=C/c2cc[n+](CCC[N+](C)(C)C)cc2)cc1.[Br-].[Br-]
624

# query: Em nm (MeOH) of entry CCN(CC)c1ccc(/C=C/C=C/C=C/c2cc[n+](CCC[N+](CC)(CC)CC)cc2)cc1.[Br-].[Br-]
811

# query: Em nm (MeOH) of entry CCCCN(CCCC)c1ccc(/C=C/c2cc[n+](CCC[N+](CC)(CC)CC)cc2)cc1.[Br-].[Br-]
624

# query: Em nm (MeOH) of entry CCN(CC)c1ccc(C=CC=CC=Cc2cc[n+](CCC[N+](C)(C)C)cc2)cc1.[Br-].[Br-]
809

# query: Em nm (MeOH) of entry CCCCN(CCCC)c1ccc(/C=C/C=C/C=C/c2cc[n+](CCC[N+](CC)(CC)CC)cc2)cc1.[Br-].[Br-]
813

# query: Em nm (MeOH) of entry CCN(CC)c1ccc(/C=C/c2cc[n+](CCC[N+](CC)(CC)CC)cc2)cc1.[Br-].[Br-]
622
